Give measured fold change of affinity for each item. Keep answers brief.
# Assayed Target: T1, Human CD3eg linker (human)
# T1 construct: Single chain: epsilon and gamma subunits of human CD3 joined by a 29-mer linker, Flag-tag at the C-terminus; also called recombinant human CD3
# T1 chain: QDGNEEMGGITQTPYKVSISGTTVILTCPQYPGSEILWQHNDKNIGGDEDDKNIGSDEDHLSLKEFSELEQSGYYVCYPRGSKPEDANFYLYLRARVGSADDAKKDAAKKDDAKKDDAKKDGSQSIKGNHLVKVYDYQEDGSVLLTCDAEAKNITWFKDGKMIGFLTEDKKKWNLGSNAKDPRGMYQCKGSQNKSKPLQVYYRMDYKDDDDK
# Assay Text: Biacore SPR, vs template H183/L072
Answers are plain numbers, in fold.

Binder	fold change of affinity, fold
H183/L072 VH A60I (antibody, name in Kabat numbering, V domains shown) VH: QVQLVESGGGLVQPGRSLRLSCAASGFTFSNAWMHWVRQAPGKGLEWVAQIKDKGNAYAAYYIPSVKGRFTISRDDSKNSIYLQMNSLKTEDTAVYYCHYVHYASASTVLPAFGVDAWGQGTTVTVSS VL: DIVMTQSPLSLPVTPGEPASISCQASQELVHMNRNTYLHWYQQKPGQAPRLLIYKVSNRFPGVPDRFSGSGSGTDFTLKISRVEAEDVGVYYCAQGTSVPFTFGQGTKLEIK	0.6
H183/L072 VH Y97M (antibody, name in Kabat numbering, V domains shown) VH: QVQLVESGGGLVQPGRSLRLSCAASGFTFSNAWMHWVRQAPGKGLEWVAQIKDKGNAYAAYYAPSVKGRFTISRDDSKNSIYLQMNSLKTEDTAVYYCHYVHMASASTVLPAFGVDAWGQGTTVTVSS VL: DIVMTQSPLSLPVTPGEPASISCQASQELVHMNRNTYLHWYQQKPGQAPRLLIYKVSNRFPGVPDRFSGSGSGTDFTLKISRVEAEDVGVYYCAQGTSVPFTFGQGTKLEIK	0
H183/L072 VH Q50K (antibody, name in Kabat numbering, V domains shown) VH: QVQLVESGGGLVQPGRSLRLSCAASGFTFSNAWMHWVRQAPGKGLEWVAKIKDKGNAYAAYYAPSVKGRFTISRDDSKNSIYLQMNSLKTEDTAVYYCHYVHYASASTVLPAFGVDAWGQGTTVTVSS VL: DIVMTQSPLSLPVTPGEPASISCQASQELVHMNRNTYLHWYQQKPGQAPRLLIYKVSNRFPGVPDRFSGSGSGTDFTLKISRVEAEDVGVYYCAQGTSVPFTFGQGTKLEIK	0
H183/L072 VH G26K (antibody, name in Kabat numbering, V domains shown) VH: QVQLVESGGGLVQPGRSLRLSCAASKFTFSNAWMHWVRQAPGKGLEWVAQIKDKGNAYAAYYAPSVKGRFTISRDDSKNSIYLQMNSLKTEDTAVYYCHYVHYASASTVLPAFGVDAWGQGTTVTVSS VL: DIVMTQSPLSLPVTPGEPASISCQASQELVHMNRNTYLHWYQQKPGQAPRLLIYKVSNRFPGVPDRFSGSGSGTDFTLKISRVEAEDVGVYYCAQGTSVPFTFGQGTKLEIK	0.6

Query binder follows.
Looking for the measured fold change of affinity of H183/L072 VH A56H (antibody, name in Kabat numbering, V domains shown) VH: QVQLVESGGGLVQPGRSLRLSCAASGFTFSNAWMHWVRQAPGKGLEWVAQIKDKGNAYHAYYAPSVKGRFTISRDDSKNSIYLQMNSLKTEDTAVYYCHYVHYASASTVLPAFGVDAWGQGTTVTVSS VL: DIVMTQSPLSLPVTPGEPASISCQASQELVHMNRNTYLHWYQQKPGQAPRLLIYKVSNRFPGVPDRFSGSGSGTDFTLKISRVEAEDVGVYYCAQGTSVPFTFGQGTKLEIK , can you help?
0.9
